molecular target: CDK2-cyclin A^173−432 (human, UniProt P24941 1-298; P20248 173-432); assay: ITC
reported_endpoint: pKd
Note on pKd: it is the negative log10 of concentration, concentration in mol/L.

Please give the measured pKd for this binder: Skp2^17−85 (domain or fragment) ATSFTWGWDSSKTSELLSGMGVSALEKEEPDSENIPQELLSNLGHPESPPRKRLKSKGSDKDFVIVRRP
6.30
